System: LLC-PK1 inducible LAT1-expressing cell line
Assay: Modified clonogenic cell viability assay (CellTiter-Glo), LLC-PK1 inducible LAT1-expressing cells
Assay type: cell-based
Conditions: Sus scrofa, LLC-PK1, non-induced cells, low endogenous LAT1; read-out: EC50, suppression of viability
Reported endpoint: EC50 (µM)
Give bare numbers, in µM.

If you can, please state the reported EC50 value of Cc1ccc(N(CCCl)CCCl)cc1C[C@H](N)CC(=O)O [QBS10072S] .
5.5

---

Biological target: hLAT1 (Homo sapiens)
Construct: host or cells: LLC-PK1 (tetracycline-inducible, Invitrogen Gateway pT-REx System)
Sequence (Q01650 whole entry, one chain of several): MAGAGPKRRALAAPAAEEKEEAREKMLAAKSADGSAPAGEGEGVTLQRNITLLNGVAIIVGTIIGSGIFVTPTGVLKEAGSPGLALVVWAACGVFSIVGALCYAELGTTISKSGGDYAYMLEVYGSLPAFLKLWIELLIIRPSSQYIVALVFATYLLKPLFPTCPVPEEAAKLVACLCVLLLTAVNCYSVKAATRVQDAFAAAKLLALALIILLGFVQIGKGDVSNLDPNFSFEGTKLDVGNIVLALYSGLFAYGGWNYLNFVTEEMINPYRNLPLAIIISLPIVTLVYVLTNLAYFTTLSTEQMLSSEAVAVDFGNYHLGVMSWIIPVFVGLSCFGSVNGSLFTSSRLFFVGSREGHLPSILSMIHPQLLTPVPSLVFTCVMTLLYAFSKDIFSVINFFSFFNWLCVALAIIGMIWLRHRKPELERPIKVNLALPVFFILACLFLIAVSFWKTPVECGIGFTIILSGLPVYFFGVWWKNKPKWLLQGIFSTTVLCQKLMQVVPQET
Experiment: Substrate transport inhibition, [3H]-gabapentin uptake in LLC-PK1 cells expressing hLAT1
Format: cell-based
Reported endpoint: pIC50
Numbers only, as −log10 of the molar value.

If you can, please state the reported pIC50 value of N[C@@H](Cc1ccc(N(CCCl)CCCl)cc1)C(=O)O [Melphalan, melphalan, reference compound] .
3.77

---

Molecular target: hLAT1 (Homo sapiens)
Construct: host or cells: LLC-PK1 (tetracycline-inducible, Invitrogen Gateway pT-REx System)
Assay: Substrate transport inhibition, [3H]-gabapentin uptake in LLC-PK1 cells expressing hLAT1
Type: cell-based
Settings: [3H]-gabapentin, LLC-PK1 LAT1-expressing cells, 15 minutes at room temperature; read-out: IC50, inhibition of substrate transport (LAT1)
Reported endpoint: pIC50
Numbers only, as −log10 of the molar value.

If you can, please state the reported pIC50 value of Cc1ccc(N(CCCl)CCCl)cc1C[C@H](N)CC(=O)O [QBS10072S] .
4.68

---

Assay: Cytotoxicity in normal human astrocytes (CellTiter-Glo)
Format: cell-based
Settings: normal human astrocytes (NHA), read-out: LC50
Reported endpoint: CC50 at 30 min (nM)
Answers are plain numbers, in nM.

If you can, please state the reported CC50 at 30 min value of N[C@@H](Cc1ccc(N(CCCl)CCCl)cc1)C(=O)O [Melphalan, melphalan, reference compound] .
860

---

Target: hLAT2 (Homo sapiens, UniProt Q9UHI5)
Construct: host or cells: LLC-PK1 (tetracycline-inducible, Invitrogen Gateway pT-REx System)
Sequence (Q9UHI5 1-535): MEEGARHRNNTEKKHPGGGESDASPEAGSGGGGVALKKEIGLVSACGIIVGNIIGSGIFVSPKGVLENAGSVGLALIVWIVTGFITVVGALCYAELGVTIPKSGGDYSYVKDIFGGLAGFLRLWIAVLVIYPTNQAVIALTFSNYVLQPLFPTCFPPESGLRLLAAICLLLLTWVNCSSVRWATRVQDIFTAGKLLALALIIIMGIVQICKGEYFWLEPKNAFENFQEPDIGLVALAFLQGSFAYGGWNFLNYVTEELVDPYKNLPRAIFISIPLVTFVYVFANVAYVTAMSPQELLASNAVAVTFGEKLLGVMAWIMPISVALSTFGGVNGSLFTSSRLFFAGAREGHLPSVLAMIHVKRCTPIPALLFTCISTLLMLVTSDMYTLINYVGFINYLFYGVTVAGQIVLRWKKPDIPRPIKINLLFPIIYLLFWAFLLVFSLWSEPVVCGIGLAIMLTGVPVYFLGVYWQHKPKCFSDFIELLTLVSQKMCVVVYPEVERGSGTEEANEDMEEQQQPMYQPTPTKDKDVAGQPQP
Sequence (P08195 1-529 partner): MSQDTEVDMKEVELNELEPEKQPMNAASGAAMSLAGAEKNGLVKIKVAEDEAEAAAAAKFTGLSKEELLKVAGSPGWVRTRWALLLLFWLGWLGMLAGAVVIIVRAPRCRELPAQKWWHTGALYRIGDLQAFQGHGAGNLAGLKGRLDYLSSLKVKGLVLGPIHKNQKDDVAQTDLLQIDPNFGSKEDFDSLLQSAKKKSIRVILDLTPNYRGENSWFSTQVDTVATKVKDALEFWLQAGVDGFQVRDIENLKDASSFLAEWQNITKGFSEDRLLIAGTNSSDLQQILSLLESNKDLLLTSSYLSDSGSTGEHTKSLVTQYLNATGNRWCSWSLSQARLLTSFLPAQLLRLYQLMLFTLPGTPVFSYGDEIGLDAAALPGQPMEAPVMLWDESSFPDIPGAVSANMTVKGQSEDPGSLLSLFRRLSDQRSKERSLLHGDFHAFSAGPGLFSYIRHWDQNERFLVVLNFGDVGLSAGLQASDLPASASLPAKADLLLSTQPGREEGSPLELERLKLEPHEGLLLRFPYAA
Assay: Substrate transport inhibition, [3H]-leucine uptake in LLC-PK1 cells expressing hLAT2
Type: cell-based
Settings: [3H]-leucine, LLC-PK1 LAT2-expressing cells, 15 minutes at room temperature; read-out: IC50, inhibition of substrate transport (LAT2)
Reported endpoint: pIC50
One number for each entry, as −log10 of the molar value.

If you can, please state the reported pIC50 value of Cc1ccc(N(CCCl)CCCl)cc1C[C@H](N)CC(=O)O [QBS10072S] .
2.96
